assay: NCI Yeast Anticancer Drug Screen. Data for the sgs1 mgt1 strain (AID 161);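 also: 0% = growth of cultures given vehicle only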; details: S. cerevisiae sgs1 mgt1 strain, at 50.0 µM
Compounds without any hit were thinned out: in the full panel of roughly 79,000, 15% have a hit. Activity calls are given as the source filed them. Rule as the data show it: active = growth inhibition above about 70%; inactive = the rest. Where a SMILES comes first, the peptide text is derived from it. The star is where a group is joined. Boc = CC(C)(C)OC(=O)*
Please state which outcome applies, choosing from y (active), n (inactive)

Dear colleague, could you share the recorded outcome for "Cc1cc2cccc(C)c2[nH]1" when you have a moment?
n

Would you mind doing CCCCCCCCCCCOCCC1C(C(C)OCCN2CCCC2)OC2OC(C)(C)OC21 (centres undefined) as well?
y

Would you mind doing CSCCC(NC(=O)C(CC(C)C)NC(=O)CNC(=O)OC(C)(C)C)C(=O)N(C)C (stereo not drawn) (Boc-Gly-Leu-Met-NMe2; configuration not given here) as well?
n

Would you mind doing "Cc1cc(=O)[nH]c(/N=C(\N)Nc2ccc(Br)c(C(F)(F)F)c2)n1" as well?
n

* * *

Assignment: determine reported growth inhibition for the given molecules.
experiment: NCI Yeast Anticancer Drug Screen. Data for the mec2-1 strain (AID 157); settings: S. cerevisiae mec2-1 strain, at 50.0 µM, stronger effect = higher value
About 79,000 compounds went through this panel and 15% of them were active in at least one assay; those are over-represented in the sample as a whole.
Numbers only here, please. The scale is %.

Would you mind telling me what growth inhibition value was observed for "CCOC(=O)c1c(O)csc1C" ?
-6.35

Would you mind doing CC1(C)[C@H](C(=O)O)N2C(=O)[C@@H](NC(=O)C(c3ccccc3)c3ccccc3)[C@H]2S1=O (some centres not stated) as well?
-8.25

Would you mind doing "c1cncc(-c2c3ccccc3cc3ccccc23)c1" as well?
-16

Would you mind doing "O=c1[nH]nc(Sc2ccccc2)c(=O)[nH]1" as well?
-3.4

Would you mind doing CCOC(=O)C(N=Nc1ccc(C)cc1Br)C(C)=O (configuration not stated) as well?
13.9

Would you mind doing "ClC1=C(Cl)C2(Cl)C=CC1(Cl)C2" as well?
-3.05

Would you mind doing "Cc1ccc(S(=O)(=O)OCC(F)(F)C(F)(F)C(F)(F)CO)cc1" as well?
3.3

* * *

experiment: NCI Yeast Anticancer Drug Screen. Data for the sgs1 mgt1 strain (AID 161);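 also: 0% = growth of cultures given vehicle only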; details: S. cerevisiae sgs1 mgt1 strain, at 50.0 µM, stronger effect = higher value
About 79,000 compounds went through this panel and 15% of them were active in at least one assay; those are over-represented in the sample as a whole. Where a SMILES comes first, the peptide text is derived from it. [ ]: non-standard residue; d: D form. ξ: configuration not given here. ξV = CC(C)C(N)C(=O)O
READOUT: growth inhibition (%)
Numbers only here, please. The scale is %.

Would you mind telling me what growth inhibition value was observed for Cc1ccc(NC(=O)OCC(COc2ccc(Cl)cc2Cl)OC(=O)Nc2ccc(C)cc2)cc1 (configuration not stated) ?
-0.55

Would you mind doing "CCN(CC)S(=O)(=O)c1ccc(N)cc1" as well?
25.4

Would you mind doing "O=C(NO)c1ccccc1O" as well?
-14.8

Would you mind doing "Cc1cccc(CCSCCc2cccc(C)[n+]2[O-])[n+]1[O-]" as well?
-1.1

Would you mind doing CCCC(C)c1ccc(OCc2ccc(C)cc2)cc1 (configuration not stated) as well?
-18.1

Would you mind doing "CC(C)CN(CC(C)C)C(=S)[S-].CC(C)CN(CC(C)C)C(=S)[S-].[Zn]" as well?
55

Would you mind doing Cc1cccc2c1Oc1ccccc1C2NC(=O)OCCCl (configuration not stated) as well?
8.7

Would you mind doing "Cc1nc2ccccc2c(Br)c1Br" as well?
3.55

Would you mind doing "CN(C)/N=C/c1cn(C)c(=O)n(C)c1=O" as well?
5.75

Would you mind doing N#CCCN(CCC#N)c1ccc(CC2C(=O)N(c3cccc(S(=O)(=O)O)c3)N=C2C(=O)O)cc1 (configuration not stated) as well?
-23.1

Would you mind doing "COc1cccc(/C=N/[N-]C(N)=O)c1[O-].[OH3+].[Pd+2]" as well?
15.9

Would you mind doing "Cc1ccc([N+](=O)[O-])c2c(NCCCN(C)C)ccnc12" as well?
20

Would you mind doing CC1(C2(C)Nc3ccccc3O2)Nc2ccccc2O1 (configuration not stated) as well?
9.95

Would you mind doing "COc1cc([N+](=O)[O-])ccc1NC(=O)Nc1c(C)n(C)n(-c2ccccc2)c1=O" as well?
-8.3

Would you mind doing CN(C)c1ccc(C(c2cc3c(cc2O)OCO3)N2CCN(C(c3ccc(N(C)C)cc3)c3cc4c(cc3O)OCO4)CC2)cc1 (configuration not stated) as well?
28.9

Would you mind doing "CC(C)Cc1ccc(NC2=C(Cl)C(=O)c3ccccc3C2=O)cc1" as well?
13.7

Would you mind doing CC(C)C(N)C(=O)NCC(=O)NCC(=O)O (stereo not drawn) (H-[ξV]-Gly-Gly-OH) as well?
-20.4

Would you mind doing "CCCCOP(=O)(Cc1ccc(Cl)cc1Cl)OCCCC" as well?
99.5

Would you mind doing O=C1CC2C(=O)N(Cc3ccccc3)C1C(S(=O)(=O)c1ccccc1)C2S(=O)(=O)c1ccccc1 (configuration not stated) as well?
2.75

Would you mind doing "NNC(=O)C1=NN(c2ccccc2)C(=O)C1" as well?
33.6

Would you mind doing "CCC(=O)NCCc1ccccc1" as well?
14.3

Would you mind doing "Nc1nc(SCc2ccccc2Cl)cc(C(=O)O)n1" as well?
47.2

Would you mind doing "N#Cc1ccccc1N=Nc1nc(N)c(C(N)=O)[nH]1" as well?
11.2

Would you mind doing "CCOC(=O)CNC(=O)CNC(=O)CNC(=O)CN" as well?
15.8

Would you mind doing "CNC(=O)NS(=O)(=O)c1cccc([N+](=O)[O-])c1" as well?
-8.3

Would you mind doing CSc1nc(NC2OCC(OC(C)=O)C(OC(C)=O)C2OC(C)=O)c(N=C(C)C(C)=O)c(=O)[nH]1 (configuration not stated) as well?
15.2

Would you mind doing "Cc1cccc(C)c1NN" as well?
11.8

Would you mind doing O/N=C1\CCC2CCCCC12 (configuration not stated) as well?
2.55

Would you mind doing "O=c1oc(-c2ccc(Cl)cc2Cl)nc2cc(Cl)ccc12" as well?
43.2

Would you mind doing Cc1cc(Cl)c(Cl)cc1NC(=O)C(Br)C(Br)c1ccccc1 (configuration not stated) as well?
74.3

Would you mind doing "COc1ccc(/C=N/O)cc1OC" as well?
-2.15

Would you mind doing "CCCCCCCCCCCCCCCCCC(=O)N/N=C/c1ccccc1" as well?
12

* * *

test: NCI Yeast Anticancer Drug Screen. Data for the rad50 strain (AID 155);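 also: 0% = growth of vehicle-only cultures of the same strain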; details: S. cerevisiae rad50 strain growth inhibition; at 50.0 µM; stronger effect = higher value
The panel holds about 79,000 compounds, 15% with a hit somewhere; the sample as a whole holds those more often.
Assignment: determine reported growth inhibition for the given compounds.
Numbers only here, please. The scale is %.

Would you mind telling me what growth inhibition value was observed for "CC(=O)OCc1cc2c(cc1CNCc1ccccc1)OCO2" ?
12.5

Would you mind doing "C[N+](C)(C)Cc1ccc2ccccc2c1CC(O)(c1ccccc1)c1ccccc1" as well?
16.6

Would you mind doing "COc1ccc(NC(=O)CSc2cc(Cl)ccc2Cl)cc1" as well?
10.7

Would you mind doing "COc1cc(C#N)cc(OC)c1" as well?
-17.4

Would you mind doing "O=C(O)c1cc(/C=C/c2cc(O)ccc2O)ccc1O" as well?
-14.7

Would you mind doing "O=C1N=NC(=O)N1c1ccccc1" as well?
-6.75

Would you mind doing "O=C1CSSCC(=O)NCCCN1" as well?
2.25

Would you mind doing "O=c1[nH]c2nc3ccccc3c(=O)n2/c1=C/c1ccco1" as well?
30.2

Would you mind doing CC1CSC(C)C(=O)N1 (configuration not stated) as well?
-11.2

Would you mind doing COC(=O)C1=C(C)N(NC(=O)c2ccccc2)C(C)(O)C12CCOC2=O (configuration not stated) as well?
1.25

Would you mind doing "O=C1CSC(/C(=C/c2ccccc2)c2nc3ccccc3[nH]2)=N1" as well?
6.65

Would you mind doing COC(=O)/C=C/C(=O)N1CC(C)N(C(=O)/C=C/C(=O)OC)CC1C (configuration not stated) as well?
-8.45

Would you mind doing "C1CCC2(CC1)OCCO2" as well?
-0.75

Would you mind doing "COc1ccc2cc3n(cc-2c1=O)CCc1cc2c(cc1-3)OCO2" as well?
-8.65

Would you mind doing O=C1CC2(CCc3ccccc32)C(=O)N1CN1CCN(CCO)CC1 (configuration not stated) as well?
12.6

Would you mind doing "Cc1ccc(S(=O)(=O)CCC(=O)c2ccc([N+](=O)[O-])cc2)cc1" as well?
9.35

Would you mind doing "CS(=O)(=O)O[C@H]1[C@H](O)c2ccccc2[C@@H]1N=[N+]=[N-]" as well?
13.5

Would you mind doing "CC1(C)C=C(N2CCCCC2)C(=O)c2ccccc21" as well?
-9.6

Would you mind doing "[O-][N+]1=CCCC1" as well?
4.4

Would you mind doing CC(C)=CC1C[C@H](C2CC=C3C2(C)CCC2[C@@]3(C)C(=O)CC3[C@]2(C)C=CC(=O)[C@]3(C)CO)CO1 (some centres not stated) as well?
77.8

Would you mind doing Oc1c(Cl)cc(Cl)cc1C1N2CCCCC2C2c3cccn3-c3ccccc3N21 (configuration not stated) as well?
22.4

Would you mind doing "Cc1cc(N)ccc1[N+](=O)[O-]" as well?
2.2
